# PROTOCOL DETAILS: qHTS assay to identify small molecule agonists of the vitamin D receptor (VDR) signaling pathway - cell viability counter screen (AID 743224); also: % is scaled to controls: 0 for no effect and ±100 for the full control effect; nearly all actives have a fitted effect of over 50% in size
# CONDITION PARAMETERS: VDR-bla HEK293T viability, CellTiter-Glo luminescence, 16 h; series mostly up to 62.6 µM
Inconclusive results are not listed. Activity calls are given as the source filed them. Calls follow the shape of the dose curve; as a rule, active = well fitted cell-killing curve with a large enough effect in the repeat runs; inconclusive = weak or mixed curves, or effect the other way; inactive = no such curve, though single readings can be large or run the other way.
// allowed return values: active, inactive

Examples with answers:
1. O=C1c2ccccc2C(=O)C1c1nc2ccccc2c(Br)c1O ... inactive
2. COC(=O)C1=C(C)NC(C)=C(C(=O)O[C@@H]2CCCN(Cc3ccccc3)C2)[C@@H]1c1cccc([N+](=O)[O-])c1 ... inactive
3. CC(CCC(=O)O)C(=O)O (stereo not given) ... inactive
4. OCCN1CCN(CCCN2c3ccccc3Sc3ccc(Cl)cc32)CC1 ... inactive
5. O=C(/C=C/c1ccc(O)c(O)c1)O[C@@H]1C[C@@](OC(=O)/C=C/c2ccc(O)c(O)c2)(C(=O)O)C[C@@H](O)[C@@H]1O ... inactive

Called result for CC1CC(OC(=O)C(O)c2ccccc2)CC(C)(C)N1C (stereo not given) inactive

What did this assay record as the result for `CCCCCCCCN` ? inactive

# lookup: test call for `CCCC(=O)C(=O)O` inactive

###

# PROTOCOL DETAILS: qHTS assay to identify small molecule antagonists of the thyroid receptor (TR) signaling pathway (AID 743065); also: nearly all actives have a fitted effect of over 55% in size
# CONDITION PARAMETERS: GH3.TRE-Luc, T3-stimulated luciferase inhibition, 23.5 h; series mostly up to 70.3 µM
Results filed as inconclusive are left out. Active and inactive are the calls of the source. The call rests on the fitted dose curve; in most records, active means well fitted inhibition curve with a large enough effect in the repeat runs; inconclusive means weak or mixed curves; inactive means no such curve, though single readings can be large or run the other way.
Write down the outcome that applies. Available outcomes: TRUE (active), FALSE (inactive)

Worked examples, 10 compounds total:
1) Cc1cc(C)c(N)cc1C ... FALSE
2) NC(=O)c1ccncc1 ... FALSE
3) N#CCc1ccc(Cl)cc1Cl ... FALSE
4) C/C=C/C=C/C=O ... FALSE
5) COc1cc(C(=O)NC2CCN(C)CC2)ccc1Nc1ncc2c(n1)N(C1CCCC1)CC(F)(F)C(=O)N2C ... TRUE
6) CC1(C)O[C@@H]2C[C@H]3[C@@H]4C[C@H](F)C5=CC(=O)C=C[C@]5(C)[C@H]4[C@@H](O)C[C@]3(C)[C@]2(C(=O)CO)O1 ... FALSE
7) O=C(Cn1ccnc1[N+](=O)[O-])NCCO ... FALSE
8) CCCCCCCCCI ... FALSE
9) O=C(OC(=O)c1ccccc1)c1ccccc1 ... FALSE
10) CCCCCCC(C)(C)C(=O)O ... FALSE

Status in this test for `C[C@@H](O)[C@H]1C(=O)N2C(C(=O)O)=C([C@H]3CCCO3)S[C@H]12` ? FALSE

Assay result, entry `CCCCCCCC/C=C\CCCCCCCCO` — outcome? FALSE

###

# PROTOCOL DETAILS: qHTS assay to identify small molecule antagonists of the retinoid acid receptor (RAR) signaling pathway - cell viability counter screen (AID 1159551); also: nearly all actives have a fitted effect of over 35% in size
# CONDITION PARAMETERS: C3RL4 cells viability, ATP luminescence (CellTiter-Glo), 6 h; series mostly up to 92.4 µM
Results filed as inconclusive are left out. Active and inactive are the calls of the source. The call rests on the fitted dose curve; in most records, active means well fitted cell-killing curve with a large enough effect in the repeat runs; inconclusive means weak or mixed curves, or effect the other way; inactive means flat fitted curve, though single readings scatter.
One label from this list, please: label 1 for active, label 0 for inactive

Some entries whose results are on file:
1) Cc1ccccc1N=C(N)Nc1ccccc1C ... label 0
2) CN1C[C@H](C(=O)N[C@]2(C)O[C@@]3(O)[C@@H]4CCCN4C(=O)[C@H](Cc4ccccc4)N3C2=O)C[C@@H]2c3cccc4[nH]cc(c34)C[C@H]21 ... label 0
3) O=C(CCCN1CC=C(n2c(=O)[nH]c3ccccc32)CC1)c1ccc(F)cc1 ... label 0
4) CCn1cc(C(=O)O)c(=O)c2cc(F)c(N3CCNCC3)cc21 ... label 0

Assay result, entry `O[C@@H]1CO[C@H]2[C@@H]1OC[C@@H]2O` — outcome? label 0

Call for entry `CS(=O)(=O)c1ccc(-c2cn3ccccc3n2)cc1` : label 1

Assay outcome for `CCOC(=O)c1ccc(I)cc1` : what was it? label 0

How did this test come out for `O=C1Cc2ccccc2N1c1c(Cl)cccc1Cl` ? label 0

Test call, this molecule: CC(CC1c2ccccc2CCc2ccccc21)CN(C)C (stereo not drawn) label 0

Hello, I am checking results. What call was entered for `CNC(=O)c1cnn(-c2nc(N)c3ncn([C@@H]4O[C@H](CO)[C@@H](O)[C@H]4O)c3n2)c1` ? label 0

Which outcome did this test record for the molecule `CCOc1ccc(Cc2nccc3cc(OCC)c(OCC)cc23)cc1OCC` ? label 0

What outcome does the record of this test show for CCCCC(CC)COP(=O)(O)O (stereo not drawn) ? label 0

What classification did `OCCOCC#CCOCCO` end up with in this test? label 0

Recorded test call requested for `COC(=O)C1=C(C)NC(C)=C(C(=O)O[C@@H]2CCCN(Cc3ccccc3)C2)[C@@H]1c1cccc([N+](=O)[O-])c1` label 0

Just curious, what result did `CC(=O)c1cc2ccccc2s1` get here? label 0

For `C(=C\c1ccccc1)/c1ccccc1` , which call appears in the assay record? label 0

Please state the recorded outcome for this molecule: `CCOC(=O)[C@H](CCc1ccccc1)N[C@@H](C)C(=O)N(CC(=O)O)C1Cc2ccccc2C1` label 0

Could you please tell me the result logged for CN1CCCN=C1COC(=O)C(O)(c1ccccc1)C1CCCCC1 (stereo not drawn) in this assay? label 0

###

# PROTOCOL DETAILS: qHTS assay to identify small molecule agonists or antagonists of the thyroid stimulating hormone receptor (TSHR) signaling pathway - wild type cell line counter screen (AID 1259384); also: % is scaled to controls: 0 for no effect and ±100 for the full control effect
# CONDITION PARAMETERS: HEK293 wild type, cAMP HTRF counter-screen; series mostly up to 92.4 µM
# Procedure: U.S. Tox21 Program National Center for Advancing Translational Sciences [NCATS] NIH Chemical Genomics Center [NCGC] U.S. Environmental Protection Agency [EPA] National Institutes of Environmental Health Sciences [NIEHS] National Toxicology Program [NTP] […] Tox21 Assay Protocol Summary: Hek293 cells (wild type) were dispensed at 800 cells/4 uL/well in 1536-well white plates using a Multidrop dispenser. […] The fluorescence intensity in the plates was measured using an Envision plate reader. […]
Results filed as inconclusive are left out. Active and inactive are the calls of the source. The call rests on the fitted dose curve.
ENDPOINT LABEL: outcome

Recorded results for 5 molecules are shown here.
1. COc1ccccc1N1CCN(CCCCNC(=O)c2ccc(-c3ccc(C(C)=O)cc3)cc2)CC1 ... inactive
2. CCOC(=O)c1ccc(C#Cc2ccc3c(c2)C(C)(C)CCS3)nc1 ... inactive
3. CN(C)CCN1C(=O)c2ccccc2N(C)c2ccccc21 ... inactive
4. CC1(C)O[C@@H]2C[C@H]3[C@@H]4C[C@H](F)C5=CC(=O)C=C[C@]5(C)[C@H]4[C@@H](O)C[C@]3(C)[C@]2(C(=O)CO)O1 ... inactive
5. OCCN1CCN(CCCN2c3ccccc3Sc3ccc(Cl)cc32)CC1 ... inactive

// next item, outcome requested
Consider `CC(=O)c1ccc([N+](=O)[O-])cc1` . Its measured outcome is inactive

###

# PROTOCOL DETAILS: qHTS assay to identify small molecule phospholipidosis (PLD) inducers (AID 1259344); also: % is scaled to controls: 0 for no effect and ±100 for the full control effect
# CONDITION PARAMETERS: HepG2 phospholipidosis, LipidTOX Red imaging, 24 h; series mostly up to 38.3 µM
Results filed as inconclusive are left out. Calls of active or inactive are those of the source. The call rests on the fitted dose curve; in most records, active means well fitted activation curve with a large enough effect; inconclusive means small, poorly fitted or top-dose-only effect; inactive means flat fitted curve, though single readings scatter.
ENDPOINT LABEL: PLD induction

Sample answers from the record:
1. CC1CC(OC(=O)C(O)c2ccccc2)CC(C)(C)N1C (stereo unspecified) ... inactive
2. C=Cc1ccc(S(=O)(=O)O)cc1 ... inactive
3. CO/N=C(/C(=O)N[C@@H]1C(=O)N2C(C(=O)O)=C(COC(N)=O)CS[C@H]12)c1ccco1 ... inactive
4. CC(CN(C)C)C(C)(O)Cc1ccc(Cl)cc1 (stereo unspecified) ... inactive
5. COc1cc(Nc2c(C#N)cnc3cc(OCCCN4CCN(C)CC4)c(OC)cc23)c(Cl)cc1Cl ... inactive

PLD induction measured on `Cc1cccc(N(C)C(=S)Oc2ccc3c(c2)CCC3)c1` = -4.02% [at 7.66 µM] (inactive)

###

# PROTOCOL DETAILS: qHTS assay to identify small molecule antagonists of the peroxisome proliferator-activated receptor gamma (PPARg) signaling pathway - cell viability counter screen (AID 743194); also: % is scaled to controls: 0 for no effect and ±100 for the full control effect; nearly all actives have a fitted effect of over 55% in size
# CONDITION PARAMETERS: PPARg-bla HEK293H viability, CellTiter-Glo luminescence, 17 h, co-treated with 50 nM rosiglitazone; series mostly up to 62.6 µM
Inconclusive results are not listed. Active and inactive are the calls of the source. The call rests on the fitted dose curve; in most records, active means well fitted cell-killing curve with a large enough effect in the repeat runs; inconclusive means weak or mixed curves, or effect the other way; inactive means no such curve, though single readings can be large or run the other way.
The categories you may choose from are t for active, f for inactive

1. O=C1c2ccccc2C(=O)C1c1nc2ccccc2c(Br)c1O ... f
2. COC(=O)CS ... f
3. NC1[C@H]2CN(c3nc4c(cc3F)c(=O)c(C(=O)O)cn4-c3ccc(F)cc3F)C[C@@H]12 (stereo not given in full) ... f
4. C1C[C@@H]2[C@H]3CC[C@H](C3)[C@@H]2C1 ... f
5. COc1ccccc1N1CCN(CC(O)COc2cccc3ccccc23)CC1 (stereo not given) ... f
6. CCCCCCCC/C=C\CCCCCCCCCCCC(=O)O ... f
7. O=C1Cc2cc(Cl)ccc2N1 ... f
8. O=C1CCCCCCCCCCOCCCCO1 ... f
9. O=C1c2ccccc2C(=O)C1c1ccc(Br)cc1 ... f
10. CC1CC(OC(=O)C(O)c2ccccc2)CC(C)(C)N1C (stereo not given) ... f

Write down the call the test reported for this molecule. Item: `O=[N+]([O-])c1ccc(Nc2ccc(Nc3ccccc3)c(S(=O)(=O)O)c2)c([N+](=O)[O-])c1` f

Outcome? `O=C(/C=C/c1ccc(O)c(O)c1)O[C@@H]1C[C@@](OC(=O)/C=C/c2ccc(O)c(O)c2)(C(=O)O)C[C@@H](O)[C@@H]1O` f
